Below is a list of entries, each paired with its recorded MIC value.
Test system: P. mirabilis 889
assay notes: Human bacteria MIC, nutrient agar with chocolated horse blood (Table 3)
Assay type: cell-based
applied conditions: Proteus mirabilis; P. mirabilis 889; nutrient agar 5% chocolated horse blood, 18 hours 37° C.; read-out: MIC
Procedure: The values were determined by serial dilutions in nutrient agar with 5% chocolated horse blood after incubations for 18 hours at 37° C.

[
  {
    "compound": "C/C(=C\\C(=O)OC(C)c1cccc([N+](=O)[O-])c1)CC1OCC(CC2OC2C(C)C(C)O)C(O)C1O (stereo not drawn) [Example 3, 1-(m-nitrophenyl)ethyl monate A]",
    "MIC": "> 100 mg/L"
  },
  {
    "compound": "C/C(=C\\C(=O)OCc1cccc([N+](=O)[O-])c1)CC1OCC(C/C=C/C(C)C(C)O)C(O)C1O (stereo not drawn) [Example 5, m-nitrobenzyl monate C]",
    "MIC": "> 100 mg/L"
  },
  {
    "compound": "C/C(=C\\C(=O)OCc1ccc([N+](=O)[O-])cc1)CC1OCC(CC2OC2C(C)C(C)O)C(O)C1O (stereo not drawn) [Example 1, p-nitrobenzyl monate A]",
    "MIC": "100 mg/L"
  },
  {
    "compound": "C/C(=C\\C(=O)OCc1cccc([N+](=O)[O-])c1)CC1OCC(CC2OC2C(C)C(C)O)C(O)C1O (stereo not drawn) [Example 2, m-nitrobenzyl monate A]",
    "MIC": "> 100 mg/L"
  },
  {
    "compound": "C/C(=C\\C(=O)OCc1cccc([N+](=O)[O-])c1C)CC1OCC(CC2OC2C(C)C(C)O)C(O)C1O (stereo not drawn) [Example 8, 2-methyl-3-nitrobenzyl monate A]",
    "MIC": "> 100 mg/L"
  }
]

Reported MIC, compound C/C(=C\C(=O)OC(C)c1ccc([N+](=O)[O-])cc1)CC1OCC(CC2OC2C(C)C(C)O)C(O)C1O (stereo not drawn) [Example 4, 1-(p-nitrophenyl)ethyl monate A] : ____
> 100 mg/L

---

Tested on: E. coli ESS
assay notes: Human bacteria MIC, nutrient agar with chocolated horse blood (Table 3)
Type: cell-based
applied conditions: Escherichia coli, 18 h
Protocol: The values were determined by serial dilutions in nutrient agar with 5% chocolated horse blood after incubations for 18 hours at 37° C.
Below is a list of entries, each paired with its recorded MIC value.
The reply should contain only the number, in µg/mL.

[
  {
    "compound": "C/C(=C\\C(=O)OCc1ccc([N+](=O)[O-])c([N+](=O)[O-])c1)CC1OCC(CC2OC2C(C)C(C)O)C(O)C1O (centres unmarked) [Example 9, 3,4-dinitrobenzyl monate A]",
    "system under test": "E. coli ESS",
    "readout units": "µg/mL",
    "MIC": 1
  },
  {
    "compound": "C/C(=C\\C(=O)OCc1ccc([N+](=O)[O-])cc1[N+](=O)[O-])CC1OCC(CC2OC2C(C)C(C)O)C(O)C1O (centres unmarked) [Example 10, 2,4-dinitrobenzyl monate A]",
    "system under test": "E. coli ESS",
    "readout units": "µg/mL",
    "MIC": 2.5
  },
  {
    "compound": "C/C(=C\\C(=O)OCc1cc([N+](=O)[O-])cc([N+](=O)[O-])c1C)CC1OCC(CC2OC2C(C)C(C)O)C(O)C1O (centres unmarked) [Example 7, 3,5-dinitro-2-methylbenzyl monate A]",
    "system under test": "E. coli ESS",
    "readout units": "µg/mL",
    "MIC": 2.5
  },
  {
    "compound": "C/C(=C\\C(=O)OCc1cc([N+](=O)[O-])cc([N+](=O)[O-])c1)CC1OCC(CC2OC2C(C)C(C)O)C(O)C1O (centres unmarked) [Example 6, 3,5-dinitrobenzyl monate A]",
    "system under test": "E. coli ESS",
    "readout units": "µg/mL",
    "MIC": 1
  }
]

Reported MIC, compound C/C(=C\C(=O)OCc1cccc([N+](=O)[O-])c1C)CC1OCC(CC2OC2C(C)C(C)O)C(O)C1O (centres unmarked) [Example 8, 2-methyl-3-nitrobenzyl monate A] : ____
1

---

Below is a list of entries, each paired with its recorded MIC value.
System: Strep. faecalis 1
assay notes: Human bacteria MIC, nutrient agar with chocolated horse blood (Table 3)
Type: cell-based
applied conditions: Enterococcus faecalis; Strep. faecalis 1; nutrient agar 5% chocolated horse blood, 18 hours 37° C.; read-out: MIC
The reply should contain only the number, in µg/mL.

Examples with their reported MIC follow.
[
  {
    "compound": "C/C(=C\\C(=O)OCc1cccc([N+](=O)[O-])c1C)CC1OCC(CC2OC2C(C)C(C)O)C(O)C1O (stereo not shown) [Example 8, 2-methyl-3-nitrobenzyl monate A]",
    "MIC / µg/mL": 50
  },
  {
    "compound": "C/C(=C\\C(=O)OCc1ccc([N+](=O)[O-])cc1)CC1OCC(CC2OC2C(C)C(C)O)C(O)C1O (stereo not shown) [Example 1, p-nitrobenzyl monate A]",
    "MIC / µg/mL": 50
  }
]

// switching to the query compound
Reported MIC, compound C/C(=C\C(=O)OCc1ccc([N+](=O)[O-])cc1Cl)CC1OCC(CC2OC2C(C)C(C)O)C(O)C1O (stereo not shown) [Example 11, 2-chloro-4-nitrobenzyl monate A] : ____
50

---

Below is a list of entries, each paired with its recorded MIC value.
Test system: M. hyosynoviae ATOC 25591
assay notes: Anti-mycoplasmal MIC in vitro, Friis broth agarose (Table 1)
Format: cell-based
applied conditions: 144 h; M. hyosynoviae ATOC 25591; in vitro, 6 days 37° C.; read-out: MIC
Please format your answer as a value with the unit trailing.

[
  {
    "compound": "C/C(=C\\C(=O)OCc1cccc([N+](=O)[O-])c1)CC1OCC(CC2OC2C(C)C(C)O)C(O)C1O (stereo not shown) [Example 2, m-nitrobenzyl monate A]",
    "readout type": "MIC",
    "recorded value": "0.025 µg/mL"
  },
  {
    "compound": "C/C(=C\\C(=O)OCc1cccc([N+](=O)[O-])c1C)CC1OCC(CC2OC2C(C)C(C)O)C(O)C1O (stereo not shown) [Example 8, 2-methyl-3-nitrobenzyl monate A]",
    "readout type": "MIC",
    "recorded value": "0.05 µg/mL"
  },
  {
    "compound": "C/C(=C\\C(=O)OC(C)c1cccc([N+](=O)[O-])c1)CC1OCC(CC2OC2C(C)C(C)O)C(O)C1O (stereo not shown) [Example 3, 1-(m-nitrophenyl)ethyl monate A]",
    "readout type": "MIC",
    "recorded value": "0.25 µg/mL"
  }
]

// switching to the query compound
Reported MIC, compound C/C(=C\C(=O)OC(C)c1ccc([N+](=O)[O-])cc1)CC1OCC(CC2OC2C(C)C(C)O)C(O)C1O (stereo not shown) [Example 4, 1-(p-nitrophenyl)ethyl monate A] : ____
0.1 µg/mL

---

Test system: E. Coli NCTC 10418
assay notes: Human bacteria MIC, nutrient agar with chocolated horse blood (Table 3)
Format: cell-based
applied conditions: Escherichia coli, NCTC10418; E. coli NCTC 10418; nutrient agar 5% chocolated horse blood, 18 hours 37° C.; read-out: MIC
readout type: MIC

Examples with their reported MIC follow.
[
  {
    "molecule": "C/C(=C\\C(=O)OC(C)c1ccc([N+](=O)[O-])cc1)CC1OCC(CC2OC2C(C)C(C)O)C(O)C1O (stereo not drawn) [Example 4, 1-(p-nitrophenyl)ethyl monate A]",
    "MIC": "> 100 µg/mL"
  },
  {
    "molecule": "C/C(=C\\C(=O)OC(C)c1cccc([N+](=O)[O-])c1)CC1OCC(CC2OC2C(C)C(C)O)C(O)C1O (stereo not drawn) [Example 3, 1-(m-nitrophenyl)ethyl monate A]",
    "MIC": "> 100 µg/mL"
  }
]

Reported MIC, molecule C/C(=C\C(=O)OCc1cccc([N+](=O)[O-])c1)CC1OCC(CC2OC2C(C)C(C)O)C(O)C1O (stereo not drawn) [Example 2, m-nitrobenzyl monate A] : ____
> 100 µg/mL

# iterate: C/C(=C\C(=O)OCc1ccc([N+](=O)[O-])cc1)CC1OCC(CC2OC2C(C)C(C)O)C(O)C1O (stereo not drawn) [Example 1, p-nitrobenzyl monate A]
25 µg/mL

# iterate: C/C(=C\C(=O)OCc1cccc([N+](=O)[O-])c1C)CC1OCC(CC2OC2C(C)C(C)O)C(O)C1O (stereo not drawn) [Example 8, 2-methyl-3-nitrobenzyl monate A]
> 100 µg/mL

# iterate: C/C(=C\C(=O)OCc1cccc([N+](=O)[O-])c1)CC1OCC(C/C=C/C(C)C(C)O)C(O)C1O (stereo not drawn) [Example 5, m-nitrobenzyl monate C]
> 100 µg/mL

---

System: Bord. bronchiseptica BO9
assay notes: Veterinary bacteria MIC, Diagnostic Sensitivity Test Agar (Table 2)
Format: cell-based
applied conditions: Bordetella bronchiseptica; Bord. bronchiseptica BO9; DST Agar, 10^4 organisms, 18 hours 37° C.; read-out: MIC
Below is a list of entries, each paired with its recorded log10(MIC) value.
Answers are given as log10 of MIC in µg/mL.

Examples with their reported log10(MIC) follow.
[
  {
    "compound": "C/C(=C\\C(=O)OCc1cccc([N+](=O)[O-])c1)CC1OCC(C/C=C/C(C)C(C)O)C(O)C1O (stereo not shown) [Example 5, m-nitrobenzyl monate C]",
    "system under test": "Bord. bronchiseptica BO9",
    "log10(MIC)": 1.60
  },
  {
    "compound": "C/C(=C\\C(=O)OC(C)c1cccc([N+](=O)[O-])c1)CC1OCC(CC2OC2C(C)C(C)O)C(O)C1O (stereo not shown) [Example 3, 1-(m-nitrophenyl)ethyl monate A]",
    "system under test": "Bord. bronchiseptica BO9",
    "log10(MIC)": 1.90
  },
  {
    "compound": "C/C(=C\\C(=O)OCc1ccc([N+](=O)[O-])cc1Cl)CC1OCC(CC2OC2C(C)C(C)O)C(O)C1O (stereo not shown) [Example 11, 2-chloro-4-nitrobenzyl monate A]",
    "system under test": "Bord. bronchiseptica BO9",
    "log10(MIC)": 0.40
  },
  {
    "compound": "C/C(=C\\C(=O)OCc1ccc([N+](=O)[O-])cc1)CC1OCC(CC2OC2C(C)C(C)O)C(O)C1O (stereo not shown) [Example 1, p-nitrobenzyl monate A]",
    "system under test": "Bord. bronchiseptica BO9",
    "log10(MIC)": 0.10
  }
]

Reported log10(MIC), compound C/C(=C\C(=O)OCc1cccc([N+](=O)[O-])c1C)CC1OCC(CC2OC2C(C)C(C)O)C(O)C1O (stereo not shown) [Example 8, 2-methyl-3-nitrobenzyl monate A] : ____
0.70

# iterate: C/C(=C\C(=O)OCc1cccc([N+](=O)[O-])c1)CC1OCC(CC2OC2C(C)C(C)O)C(O)C1O (stereo not shown) [Example 2, m-nitrobenzyl monate A]
0.70

# iterate: C/C(=C\C(=O)OC(C)c1ccc([N+](=O)[O-])cc1)CC1OCC(CC2OC2C(C)C(C)O)C(O)C1O (stereo not shown) [Example 4, 1-(p-nitrophenyl)ethyl monate A]
0.70
